# assayTarget: Muscarinic acetylcholine receptor M1 (Homo sapiens) (UniProt P11229)
# Sequence (P11229 whole entry, looked up): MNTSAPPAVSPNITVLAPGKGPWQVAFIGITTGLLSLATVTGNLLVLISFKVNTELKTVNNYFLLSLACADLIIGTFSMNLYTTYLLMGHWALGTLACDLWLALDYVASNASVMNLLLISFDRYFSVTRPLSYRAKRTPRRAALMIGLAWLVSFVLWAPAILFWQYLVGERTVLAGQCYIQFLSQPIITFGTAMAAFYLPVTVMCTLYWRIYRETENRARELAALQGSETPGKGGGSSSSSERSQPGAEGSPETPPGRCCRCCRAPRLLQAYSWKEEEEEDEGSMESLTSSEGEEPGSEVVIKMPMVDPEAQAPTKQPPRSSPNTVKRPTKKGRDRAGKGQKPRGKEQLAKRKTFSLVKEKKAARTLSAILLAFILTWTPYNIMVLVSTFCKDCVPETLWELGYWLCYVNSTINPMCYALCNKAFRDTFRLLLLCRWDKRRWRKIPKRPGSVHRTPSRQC
# procedureSummary: CHRM1 PAMs potentiating acetylcholine calcium signal – CHO-K1 cells, Fluo-8 calcium fluorescence, 1536-well, primary screen (AID 588819)
# experimentalConditions: CHO-K1 hM1, Fluo-8 calcium fluorescence, ACh EC20; at 3 µM; 0% = ACh EC20, 100% = maximal ACh
About 320 (0.089%) of roughly 360,000 compounds were called active. No stated cut-off is given here; in the data, active means activation above about 19% (passing the limit was not always enough); inactive means the rest. Shown is part of a subset that was picked to be rich in actives.
Please answer using one outcome listed in yes (active), no (inactive)

The following compounds have reported results that may help.
[
  {
    "compound": "Cc1cccc2c1N(CCOc1ccccc1)C(=O)C2=O",
    "assayTarget": "Muscarinic acetylcholine receptor M1 (Homo sapiens) (UniProt P11229)",
    "assignedCategory": "no"
  },
  {
    "compound": "Cc1ccc(C(O)P(=O)(OC(C)C)c2ccc(N(C)C)cc2)cc1 (configuration not stated)",
    "assayTarget": "Muscarinic acetylcholine receptor M1 (Homo sapiens) (UniProt P11229)",
    "assignedCategory": "no"
  },
  {
    "compound": "CC(=O)c1cccc(NC(=O)C2CCCN2S(=O)(=O)c2cccc3nsnc23)c1 (configuration not stated)",
    "assayTarget": "Muscarinic acetylcholine receptor M1 (Homo sapiens) (UniProt P11229)",
    "assignedCategory": "no"
  },
  {
    "compound": "Cc1ccc(-c2noc(C3CCCN(C(=O)c4cccc(Cl)c4)C3)n2)o1 (configuration not stated)",
    "assayTarget": "Muscarinic acetylcholine receptor M1 (Homo sapiens) (UniProt P11229)",
    "assignedCategory": "yes"
  },
  {
    "compound": "Cc1nc(-c2ccc(F)cc2)c(CC(=O)Nc2cc(S(=O)(=O)N3CCCCC3)ccc2C)s1",
    "assayTarget": "Muscarinic acetylcholine receptor M1 (Homo sapiens) (UniProt P11229)",
    "assignedCategory": "no"
  }
]

[ask] Give the logged outcome of this assay for the following compound: O=C(Cn1nc(C(=O)O)c2ccccc2c1=O)Nc1ccc(F)cc1
[reply] no

[ask] What was the test verdict on CCCn1c(=O)c2c(C(F)(F)F)cc(-c3cccs3)nc2n(CCC)c1=O ?
[reply] no

[ask] Status in this test for O=C(Cc1ccccc1)NCC1OCCc2ccccc21 (configuration not stated) ?
[reply] no

[ask] Name the outcome recorded for COC(=O)CC(=O)N1CCN(c2ccc(Cl)c(Cl)c2)CC1 in the assay.
[reply] no

[ask] // param item: O=C(c1ccco1)N1CCN(C(=O)C2CC(c3ccc(Cl)c(Cl)c3)=NO2)CC1 (configuration not stated) ; yields the recorded call
[reply] no

[ask] What classification did Cc1ccc(CSCC(=O)N(C)CC(=O)Nc2cccc(F)c2)cc1 end up with in this test?
[reply] no

[ask] Hello, I am checking results. What call was entered for CCOP(=O)(OCC)C(Nc1ccc([N+](=O)[O-])cc1)c1ccc(Cl)cc1 (configuration not stated) ?
[reply] no

[ask] What classification did COCCn1c(SCC(=O)N2CCCCCC2)nc2c(c1=O)SCC2 end up with in this test?
[reply] yes

Origin of the recorded values: PubChem BioAssay AID588819
